# ASSAY_SYSTEM: M1 receptor (Rattus norvegicus, UniProt P08482)
# Construct: expressed in transfected cells
# Sequence (P08482 1-460): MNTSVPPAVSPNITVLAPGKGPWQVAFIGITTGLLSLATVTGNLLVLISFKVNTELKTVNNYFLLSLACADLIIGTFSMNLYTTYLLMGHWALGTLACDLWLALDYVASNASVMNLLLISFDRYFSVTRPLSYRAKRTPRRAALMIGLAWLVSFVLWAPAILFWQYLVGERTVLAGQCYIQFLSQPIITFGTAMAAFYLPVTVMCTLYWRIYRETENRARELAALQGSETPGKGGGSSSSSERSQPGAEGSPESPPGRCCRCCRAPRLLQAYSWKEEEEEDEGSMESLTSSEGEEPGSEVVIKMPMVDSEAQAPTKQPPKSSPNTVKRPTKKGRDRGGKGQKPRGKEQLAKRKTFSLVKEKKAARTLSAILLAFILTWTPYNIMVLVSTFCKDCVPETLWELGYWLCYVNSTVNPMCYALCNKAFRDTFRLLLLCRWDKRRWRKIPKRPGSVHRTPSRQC
# PROCEDURE_TEXT: M1 PAM assay (FLIPR intracellular calcium), rat
# Assay type: cell-based
# ASSAY_CONDITIONS: rat; modulator activity with EC20 of acetylcholine; FLIPR Ca2+; read-out: EC50 rat PAM
pEC50: −log10 of the molar value.
Outcome: True for pEC50 of at least 7; False for anything lower.

(Q) API: above_or_equal(metric=pEC50, cutoff=7) for item `CC[C@H](C)[C@@H](CO)NC(=O)c1cn(Cc2ccc(-c3cnn(C)c3)cc2F)c2cccnc12`
(A) False
